- Tested on: PPARg DBDmut:RXRa IVT, anti-PPARg (DBD mutation: PPARg1 K132A/R137A, NR concentration 270 nM, RXRa partner concentration 90 nM)
- method: PBM binding z-score (relative to random genomic background probes); higher = stronger binding; sequences stand for … in GC…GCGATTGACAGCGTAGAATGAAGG
This section presents sequences with their documented PBM binding z-score values.

seq	PBM binding z-score
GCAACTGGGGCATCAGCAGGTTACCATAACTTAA	-0.129
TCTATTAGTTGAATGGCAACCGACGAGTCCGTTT	0.422
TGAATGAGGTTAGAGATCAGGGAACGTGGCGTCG	0.576
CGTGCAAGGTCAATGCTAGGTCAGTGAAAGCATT	0.426
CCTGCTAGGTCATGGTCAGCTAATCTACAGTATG	0.0201
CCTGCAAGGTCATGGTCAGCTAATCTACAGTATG	1.03
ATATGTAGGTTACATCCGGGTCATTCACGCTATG	6.55
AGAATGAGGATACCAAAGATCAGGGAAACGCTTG	0.131
CCTTACGCGTCACTCCAGGTTATAGCATCGGAGT	0.286
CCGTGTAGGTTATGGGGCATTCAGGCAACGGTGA	-1.11
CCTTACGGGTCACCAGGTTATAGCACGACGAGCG	0.0764
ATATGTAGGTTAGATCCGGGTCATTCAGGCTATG	1.34
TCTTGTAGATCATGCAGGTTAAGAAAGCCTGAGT	0.847
CTCGAAAGGTCGTGCTCGGGTGAGTATACCAAAC	0.595
GCTATTAGTTGAACGGGCAACCGAATGATTCTCG	-1.02

====

- Test system: PXR homodimer (NR concentration 270 nM)
- method: PBM binding z-score (relative to random genomic background probes); higher = stronger binding; sequences stand for … in GC…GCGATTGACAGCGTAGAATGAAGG
Our labelling divides records by PBM binding z-score into ranges: bottom range = under -0.2, center range = from -0.2 up to 0.6, top range = 0.6 and over

seq	cat
GCTCGGAGGACAAGGTCAGTGCTTTGTCCGTAGA	bottom range
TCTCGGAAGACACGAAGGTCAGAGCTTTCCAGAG	center range
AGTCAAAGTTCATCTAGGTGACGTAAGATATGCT	top range
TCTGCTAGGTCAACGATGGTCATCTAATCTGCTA	bottom range
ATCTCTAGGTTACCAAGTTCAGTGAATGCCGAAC	top range
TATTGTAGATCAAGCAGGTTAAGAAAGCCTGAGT	bottom range
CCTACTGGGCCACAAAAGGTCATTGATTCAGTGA	top range
TCTGCTAGTTCAACGATGGTCAGCTAATCTGCTA	center range
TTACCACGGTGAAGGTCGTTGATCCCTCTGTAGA	center range
GCAGAAAGGTGAAACGCAGGTAACTCAGGGTGGC	bottom range
ACAGACAGGCGATGAAGGTAACTCAGGCTATCAT	center range
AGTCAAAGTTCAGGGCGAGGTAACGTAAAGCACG	top range
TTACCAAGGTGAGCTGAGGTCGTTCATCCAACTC	top range
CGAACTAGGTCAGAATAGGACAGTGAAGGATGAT	center range
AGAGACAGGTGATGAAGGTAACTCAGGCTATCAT	top range
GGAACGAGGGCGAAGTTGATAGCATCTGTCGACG	bottom range
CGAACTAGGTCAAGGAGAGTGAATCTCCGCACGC	bottom range
